Hello, the source for this data is ChEMBL document CHEMBL2057096, in case you need it.

Reported Kp at 4 h is given for each of the following molecules.
# test.summary: Ratio of drug level in brain to blood in C57BL/6 mouse at 2 mg/kg, ip after 4 hrs
# Format: ADME, organism-based
# Parameters: dose 2 mg/kg, route intraperitoneal

INSERT INTO results (mol_smiles, experimental_result) VALUES
  ('CCc1c(CCCC(=O)O)cccc1-c1noc(-c2ccc(OC(C)C)c(C#N)c2)n1', 0.68),
  ('CCc1c(CCCC(=O)O)cccc1-c1nnc(-c2ccc(OC(C)C)c(C#N)c2)o1', 0.09),
  ('CCc1c(CCCC(=O)O)cccc1-c1nsc(-c2ccc(OC(C)C)c(C#N)c2)n1', 0.52);

Any idea what Kp at 4 h was measured for `CCc1c(CCN2CCC(C(=O)O)CC2)cccc1-c1nsc(-c2ccc(OC(C)C)c(Cl)c2)n1` ? 1.48

# iterate: `CCc1c(CCCC(=O)O)cccc1-c1cnc(-c2ccc(OC(C)C)c(C#N)c2)s1` 0.35

###

# system.name: Cytochrome P450 2C9 (Homo sapiens, UniProt P11712)
# Sequence (P11712 whole entry): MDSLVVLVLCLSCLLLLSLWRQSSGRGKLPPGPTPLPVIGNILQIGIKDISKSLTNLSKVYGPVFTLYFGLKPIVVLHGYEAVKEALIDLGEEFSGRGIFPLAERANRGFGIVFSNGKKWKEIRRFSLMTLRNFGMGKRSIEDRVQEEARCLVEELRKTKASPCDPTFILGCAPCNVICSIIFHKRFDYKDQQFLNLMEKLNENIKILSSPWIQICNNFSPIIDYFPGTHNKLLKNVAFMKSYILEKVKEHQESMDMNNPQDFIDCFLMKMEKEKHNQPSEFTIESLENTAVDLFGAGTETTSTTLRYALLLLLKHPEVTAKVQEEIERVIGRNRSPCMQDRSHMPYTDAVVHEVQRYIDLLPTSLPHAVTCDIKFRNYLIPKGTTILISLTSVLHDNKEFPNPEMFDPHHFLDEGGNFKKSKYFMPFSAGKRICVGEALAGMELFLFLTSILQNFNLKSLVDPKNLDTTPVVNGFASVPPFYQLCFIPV
# test.summary: Inhibition of CYP2C9
# Assay type: ADME
pIC50: −log10 of the molar value.
// pIC50 lookup, one value per entry

INSERT INTO results (mol_smiles, experimental_result) VALUES
  ('CCc1c(CCCC(=O)O)cccc1-c1nnc(-c2ccc(OC(C)C)c(C#N)c2)s1', '< 5.00'),
  ('CCc1c(CCCC(=O)O)cccc1-c1nsc(-c2ccc(OC(C)C)c(C#N)c2)n1', 5.30);

Please look up its pIC50: `CCc1c(CCN2CCC(C(=O)O)CC2)cccc1-c1nsc(-c2ccc(CC(C)C)c(C#N)c2)n1` < 5.00

###

Listed here are compounds together with their documented fraction unbound.
# test.summary: Percentage unbound in human plasma
# Assay type: ADME, cell-free
No unit in the answer, only the number.

Recorded fraction unbound, per entry:
INSERT INTO results (mol_smiles, attribute_measured, experimental_result) VALUES
  ('CCc1c(CN(C)CC(=O)O)cccc1-c1nsc(-c2ccc(OC(C)C)c(C(F)(F)F)c2)n1', 'fraction unbound', 0.0049),
  ('CCc1c(CCN2CC(C(=O)O)C2)cccc1-c1nsc(-c2ccc(OC(C)C)c(Cl)c2)n1', 'fraction unbound', 0.0067),
  ('CCc1c(CCCC(=O)O)cncc1-c1nsc(-c2ccc(OC(C)C)c(C(F)(F)F)c2)n1', 'fraction unbound', 0.0012),
  ('CCc1c(CN2CC(C(=O)O)C2)cccc1-c1nsc(-c2ccc(OC(C)C)c(C(F)(F)F)c2)n1', 'fraction unbound', 0.0026);

Then this compound:
Recorded fraction unbound of `CCc1c(CCCC(=O)O)cccc1-c1cnc(-c2ccc(OC(C)C)c(C#N)c2)nc1` , please. 0.0019

###

# Species on record: Homo sapiens
# test.summary: Selectivity ratio of EC50 for S1P3 receptor to EC50 for S1P1 receptor
attribute.measured: Ratio EC50

These recorded examples may help you get a feel for the data.
INSERT INTO measurements (mol_smiles, experimental_result) VALUES
  ('CCc1c(CCN2CC(C(=O)O)C2)cccc1-c1nsc(-c2ccc(OC(C)C)c(Cl)c2)n1', '> 1000'),
  ('CCc1c(CCN2CC(C(=O)O)C2)cccc1-c1nsc(-c2ccc(CC(C)C)c(C#N)c2)n1', '> 1000');

Which Ratio EC50 value belongs to `CCc1c(CN(C)CC(=O)O)cccc1-c1nsc(-c2ccc(OC(C)C)c(C(F)(F)F)c2)n1` ? > 1000

###

# system.name: Sphingosine 1-phosphate receptor 3 (Homo sapiens)
# Sequence (Q99500 whole entry): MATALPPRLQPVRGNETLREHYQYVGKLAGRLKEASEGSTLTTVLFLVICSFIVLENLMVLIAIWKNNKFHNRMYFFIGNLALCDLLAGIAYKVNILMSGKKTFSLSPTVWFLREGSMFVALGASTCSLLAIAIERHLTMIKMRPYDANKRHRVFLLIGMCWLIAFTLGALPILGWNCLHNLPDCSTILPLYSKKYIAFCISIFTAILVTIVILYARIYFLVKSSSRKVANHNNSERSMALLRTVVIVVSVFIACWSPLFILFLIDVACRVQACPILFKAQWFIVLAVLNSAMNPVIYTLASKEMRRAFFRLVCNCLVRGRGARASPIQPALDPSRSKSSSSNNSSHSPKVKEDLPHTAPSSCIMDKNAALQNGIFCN
# test.summary: Agonist activity against S1P3 receptor by cell based FRET assay
Below, each entry is listed alongside its reported EC50.

INSERT INTO measurements (mol_smiles, experimental_result) VALUES
  ('CCc1c(CCN2CCC(C(=O)O)CC2)cccc1-c1nsc(-c2ccc(CC(C)C)c(C#N)c2)n1', '> 3.16 µM'),
  ('CCc1c(CCN2CCC(C(=O)O)CC2)cccc1-c1nsc(-c2ccc(OC(C)C)c(C(F)(F)F)c2)n1', '2.51 µM'),
  ('CCc1c(CCN(C)CC(=O)O)cccc1-c1nsc(-c2ccc(OC(C)C)c(C(F)(F)F)c2)n1', '> 3.16 µM'),
  ('CCc1c(CCCC(=O)O)cccc1-c1nsc(-c2ccc(OC(C)C)c(C#N)c2)n1', '> 10 µM');

Find the recorded EC50 belonging to `CCc1c(CN2CC(C(=O)O)C2)cccc1-c1nsc(-c2ccc(OC(C)C)c(Cl)c2)n1` and report it. > 3.16 µM

// next record `CCc1c(CN(C)C(C)(C)C(=O)O)cccc1-c1nsc(-c2ccc(OC(C)C)c(C(F)(F)F)c2)n1` > 10 µM

`CCc1c(CN2CCC(C(=O)O)CC2)cccc1-c1nsc(-c2ccc(OC(C)C)c(C(F)(F)F)c2)n1` ? > 10 µM

Now this one: `CCc1c(CN2CC(C(=O)O)C2)cccc1-c1nsc(-c2ccc(OC(C)C)c(C(F)(F)F)c2)n1` 2.51 µM

###

# test.summary: Ratio of drug level in brain to blood in C57BL/6 mouse at 2 mg/kg, ip after 4 hrs
# Type: ADME, organism-based
# Design: dose 2 mg/kg, route intraperitoneal
attribute.measured: Kp at 4 h
Quick one: just the number, no unit, thanks!

Known Kp at 4 h results, listed for orientation:
INSERT INTO assay_data (mol_smiles, experimental_result) VALUES
  ('CCc1c(CCN2CCC(C(=O)O)CC2)cccc1-c1nsc(-c2ccc(CC(C)C)c(C#N)c2)n1', 0.65),
  ('CCc1c(CCCC(=O)O)cccc1-c1ccc(-c2ccc(OC(C)C)c(C#N)c2)s1', 1.5);

State the recorded Kp at 4 h for this entry: `CCc1c(CCCC(=O)O)cccc1-c1nnc(-c2ccc(OC(C)C)c(C#N)c2)s1` 0.19

# iterate: `CCc1c(CCCC(=O)O)cccc1-c1ccc(-c2ccc(OC(C)C)c(C#N)c2)cc1` 0.95

Item: `CCc1c(CCCC(=O)O)cccc1-c1cnc(-c2ccc(OC(C)C)c(C#N)c2)nc1` 0.48
